Where do the numbers come from? From patent US8138159B2.

Below, each entry is listed alongside its reported inhibition percentage (%) of the relative mRNA expression level (Flt3 mRNA/GAPDH mRNA).
system: Flt3 mRNA; experiment: Flt3 mRNA interference by synthesized siRNA, real-time RT-PCR (Example 1); type: cell-based, human; conditions: MV4-11 (ITD mutation-highly expressing); siRNA 200 pmol, Oligofectamin, after 24 hours; vs cells transfected without siRNA
Give just the numeric value; % need not be written.

Below are worked cases with known answers.
substance="siRNA1: siRNA to ATP-binding site region of Flt3 (target SEQ ID NO: 1); sense SEQ ID NO: 2, antisense SEQ ID NO: 3 (sense GGUACUAGGAUCAGGUGCUTT; antisense AGCACCUGAUCCUAGUACCTT; chemistry not given here)" readout_value=65
substance="siRNA2: siRNA to TK (kinase) region of Flt3 (target SEQ ID NO: 4); sense SEQ ID NO: 5, antisense SEQ ID NO: 6 (sense CAGGAGUCUCAAUCCAGGUTT; antisense ACCUGGAUUGAGACUCCUGTT; chemistry not given here)" readout_value=54
substance="siRNA3: siRNA to juxtamembrane region (Flt3/JMD region) (target SEQ ID NO: 7); sense SEQ ID NO: 8, antisense SEQ ID NO: 9 (sense UAUGAAUAUGAUCUCAAAUTT; antisense AUUUGAGAUCAUAUUCAUATT; chemistry not given here)" readout_value=65

Okay, now this substance:
Observed inhibition percentage (%) of the relative mRNA expression level (Flt3 mRNA/GAPDH mRNA), Flt3 mRNA, siRNA4: siRNA to BCR/ABL chimera mRNA (target SEQ ID NO: 10); sense SEQ ID NO: 11, antisense SEQ ID NO: 12; unspecific control (sense GCAGAGUUCAAAAGCCCUUTT; antisense AAGGGCUUUUGAACUCUGCTT; chemistry not given here) [reference compound] : 5

* * *

tested on: Flt3 mRNA; experiment: Flt3 mRNA interference by synthesized siRNA, real-time RT-PCR (Example 1); format: cell-based, human; settings: EoL1 (WT-highly expressing); siRNA 200 pmol, Oligofectamin, after 24 hours; vs cells transfected without siRNA
Below, each entry is listed alongside its reported inhibition percentage (%) of the relative mRNA expression level (Flt3 mRNA/GAPDH mRNA).
Give just the numeric value; % need not be written.

Below are worked cases with known answers.
substance="siRNA2: siRNA to TK (kinase) region of Flt3 (target SEQ ID NO: 4); sense SEQ ID NO: 5, antisense SEQ ID NO: 6 (sense CAGGAGUCUCAAUCCAGGUTT; antisense ACCUGGAUUGAGACUCCUGTT; chemistry not given here)" target_entity="Flt3 mRNA" units_text=% readout_value=54
substance="siRNA1: siRNA to ATP-binding site region of Flt3 (target SEQ ID NO: 1); sense SEQ ID NO: 2, antisense SEQ ID NO: 3 (sense GGUACUAGGAUCAGGUGCUTT; antisense AGCACCUGAUCCUAGUACCTT; chemistry not given here)" target_entity="Flt3 mRNA" units_text=% readout_value=41
substance="siRNA4: siRNA to BCR/ABL chimera mRNA (target SEQ ID NO: 10); sense SEQ ID NO: 11, antisense SEQ ID NO: 12; unspecific control (sense GCAGAGUUCAAAAGCCCUUTT; antisense AAGGGCUUUUGAACUCUGCTT; chemistry not given here) [reference compound]" target_entity="Flt3 mRNA" units_text=% readout_value=8

Okay, now this substance:
Quick note, inhibition percentage (%) of the relative mRNA expression level (Flt3 mRNA/GAPDH mRNA) for siRNA3: siRNA to juxtamembrane region (Flt3/JMD region) (target SEQ ID NO: 7); sense SEQ ID NO: 8, antisense SEQ ID NO: 9 (sense UAUGAAUAUGAUCUCAAAUTT; antisense AUUUGAGAUCAUAUUCAUATT; chemistry not given here) landed at 63

* * *

test system: Flt3 mRNA; experiment: Flt3 mRNA interference by synthesized siRNA, real-time RT-PCR (Example 1); format: cell-based, human; settings: HL60 (WT-low expressing); siRNA 200 pmol, Oligofectamin, after 24 hours; vs cells transfected without siRNA
Below, each entry is listed alongside its reported inhibition percentage (%) of the relative mRNA expression level (Flt3 mRNA/GAPDH mRNA).
Number plus unit, in that order.

Below are worked cases with known answers.
substance="siRNA4: siRNA to BCR/ABL chimera mRNA (target SEQ ID NO: 10); sense SEQ ID NO: 11, antisense SEQ ID NO: 12; unspecific control (sense GCAGAGUUCAAAAGCCCUUTT; antisense AAGGGCUUUUGAACUCUGCTT; chemistry not given here) [reference compound]" target_entity="Flt3 mRNA" readout_value=7%
substance="siRNA2: siRNA to TK (kinase) region of Flt3 (target SEQ ID NO: 4); sense SEQ ID NO: 5, antisense SEQ ID NO: 6 (sense CAGGAGUCUCAAUCCAGGUTT; antisense ACCUGGAUUGAGACUCCUGTT; chemistry not given here)" target_entity="Flt3 mRNA" readout_value=46%
substance="siRNA3: siRNA to juxtamembrane region (Flt3/JMD region) (target SEQ ID NO: 7); sense SEQ ID NO: 8, antisense SEQ ID NO: 9 (sense UAUGAAUAUGAUCUCAAAUTT; antisense AUUUGAGAUCAUAUUCAUATT; chemistry not given here)" target_entity="Flt3 mRNA" readout_value=38%

Okay, now this substance:
Quick note, inhibition percentage (%) of the relative mRNA expression level (Flt3 mRNA/GAPDH mRNA) for siRNA1: siRNA to ATP-binding site region of Flt3 (target SEQ ID NO: 1); sense SEQ ID NO: 2, antisense SEQ ID NO: 3 (sense GGUACUAGGAUCAGGUGCUTT; antisense AGCACCUGAUCCUAGUACCTT; chemistry not given here) landed at 31%
